Provenance of the data: patent US10207982B2

assay comment: Comparative dissolution profiles of five solid phases
Format: physicochemical
settings: pH 4.5

{"compound": "CN(C)CC(c1ccc(O)cc1)C1(O)CCCCC1.O=C(O)c1ccc(O)c(O)c1 (stereo not shown) [Crystalline DSV:3,4-DHB]", "Quotient (kNSF/kDSV)": 5.9}
{"compound": "CN(C)CC(c1ccc(O)cc1)C1(O)CCCCC1.O=C(O)c1ccc(O)cc1O (stereo not shown) [Crystalline DSV:2,4-DHB, desvenlafaxine-2,4-dihydroxybenzoic acid]", "Quotient (kNSF/kDSV)": 0.94}
{"compound": "CN(C)CC(c1ccc(O)cc1)C1(O)CCCCC1 (stereo not shown) [DSV-Succinate, desvenlafaxine succinate, reference compound]", "Quotient (kNSF/kDSV)": 6.9}
{"compound": "CN(C)CC(c1ccc(O)cc1)C1(O)CCCCC1.O=C(O)c1ccc(O)c(O)c1 (stereo not shown) [Amorphous DSV:3,4-DHB, desvenlafaxine-3,4-dihydroxybenzoic acid]", "Quotient (kNSF/kDSV)": 18.4}

----------
assay comment: Dissolution rate test in Wood apparatus, amorphous NSF
Format: physicochemical
settings: pH 4.5; 150 mg tablets, 37° C., 50 rpm
Known Dissolution Rate Constants of a selection of molecules

{"molecule": "CN(C)CC(c1ccc(O)cc1)C1(O)CCCCC1.O=C(O)c1ccc(O)c(O)c1 (stereo not shown) [Amorphous DSV:3,4-DHB, desvenlafaxine-3,4-dihydroxybenzoic acid]", "Dissolution Rate Constants [mg/cm^2 · min]": 5.0}
{"molecule": "CN(C)CC(c1ccc(O)cc1)C1(O)CCCCC1.O=C(O)c1cc(O)c(O)c(O)c1 (stereo not shown) [DSV:3,4,5-THB]", "Dissolution Rate Constants [mg/cm^2 · min]": 6.1}
{"molecule": "CN(C)CC(c1ccc(O)cc1)C1(O)CCCCC1.O=C(O)c1cccc(O)c1 (stereo not shown) [DSV:3-HB, desvenlafaxine-3-hydroxybenzoic acid]", "Dissolution Rate Constants [mg/cm^2 · min]": 6.1}
{"molecule": "CN(C)CC(c1ccc(O)cc1)C1(O)CCCCC1 (racemic) [DSV, reference compound]", "Dissolution Rate Constants [mg/cm^2 · min]": 1.2}

----------
Known Quotient (kNSF/kDSV) of a selection of compounds
assay comment: Comparative dissolution profiles of five solid phases
Type: physicochemical
settings: pH 6.8

{"compound": "CN(C)CC(c1ccc(O)cc1)C1(O)CCCCC1.O=C(O)c1ccc(O)cc1O (stereo not shown) [Crystalline DSV:2,4-DHB, desvenlafaxine-2,4-dihydroxybenzoic acid]", "Quotient (kNSF/kDSV)": 0.71}
{"compound": "CN(C)CC(c1ccc(O)cc1)C1(O)CCCCC1.O=C(O)c1ccc(O)c(O)c1 (stereo not shown) [Amorphous DSV:3,4-DHB, desvenlafaxine-3,4-dihydroxybenzoic acid]", "Quotient (kNSF/kDSV)": 17.0}
{"compound": "CN(C)CC(c1ccc(O)cc1)C1(O)CCCCC1.O=C(O)c1ccc(O)c(O)c1 (stereo not shown) [Crystalline DSV:3,4-DHB]", "Quotient (kNSF/kDSV)": 4.8}
{"compound": "CN(C)CC(c1ccc(O)cc1)C1(O)CCCCC1 (stereo not shown) [DSV-Succinate, desvenlafaxine succinate, reference compound]", "Quotient (kNSF/kDSV)": 10.0}

----------
assay comment: Dissolution rate test in Wood apparatus, amorphous NSF
Assay type: physicochemical
settings: water; 150 mg tablets, 37° C., 50 rpm
Known Dissolution Rate Constants of a selection of compounds
reported endpoint: Dissolution Rate Constants (mg/cm^2 · min)

{"compound": "CN(C)CC(c1ccc(O)cc1)C1(O)CCCCC1.O=C(O)c1cccc(O)c1 (stereo not shown) [DSV:3-HB, desvenlafaxine-3-hydroxybenzoic acid]", "uom": "mg/cm^2 · min", "result value": 3.8}
{"compound": "CN(C)CC(c1ccc(O)cc1)C1(O)CCCCC1.O=C(O)c1ccc(O)c(O)c1 (stereo not shown) [Amorphous DSV:3,4-DHB, desvenlafaxine-3,4-dihydroxybenzoic acid]", "uom": "mg/cm^2 · min", "result value": 2.3}
{"compound": "CN(C)CC(c1ccc(O)cc1)C1(O)CCCCC1 (racemic) [DSV, reference compound]", "uom": "mg/cm^2 · min", "result value": 0.0}
{"compound": "CN(C)CC(c1ccc(O)cc1)C1(O)CCCCC1.O=C(O)c1cc(O)c(O)c(O)c1 (stereo not shown) [DSV:3,4,5-THB]", "uom": "mg/cm^2 · min", "result value": 1.6}
